Overview of recorded Ka for various binders
Tgt: T1, native human ApoC3 (human, UniProt P02656 21-99)
T1 construct: also called nhuApoC3; native huApoC3
Assay name: SPR, ApoC3 over captured IgG1, pH 7.4
Return type: number; implicit unit M⁻¹.

- Binder: "mAb10 (antibody, IgG1, V domains shown, Produced as full length IgG1 (kappa) in ExpiCHO-S cells; also called humanized anti-ApoC3 antibody mAb10) VH: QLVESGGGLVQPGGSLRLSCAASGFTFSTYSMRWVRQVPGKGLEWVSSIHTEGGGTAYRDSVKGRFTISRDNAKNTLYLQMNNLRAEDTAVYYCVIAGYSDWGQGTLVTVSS VL: DIVMTQSPLSLSVVPGEPASISCKTSQGLVHSDGKTYFYWFLQKPGQSPQQLIYQVSNRASGVPDRFSGSGSGTDFTLKISRVEAEDVGVYYCAHGTYYPHTFGQGTRLEIK"
  Units label: "M⁻¹"
  Ka: "5.3e+06"
- Binder: "mAb1 (antibody, IgG1, V domains shown, Produced as full length IgG1 (kappa) in ExpiCHO-S cells; also called humanized anti-ApoC3 antibody mAb1) VH: QLVESGGGLVQPGGSLRLSCAASGFTFGTYSMRWVRQVPGKGLEWVSSIHTEGGGTAYRDSVKGRFTISRDNAKNTLYLQMNSLRAEDTAIYYCVIAGYSDWGQGTLVTVSS VL: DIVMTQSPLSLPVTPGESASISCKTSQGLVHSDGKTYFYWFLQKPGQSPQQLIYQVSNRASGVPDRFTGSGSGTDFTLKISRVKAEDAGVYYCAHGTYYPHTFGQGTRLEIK"
  Units label: "M⁻¹"
  Ka: "1.35e+07"
- Binder: "mAb3 (antibody, IgG1, V domains shown, Produced as full length IgG1 (kappa) in ExpiCHO-S cells; also called humanized anti-ApoC3 antibody mAb3) VH: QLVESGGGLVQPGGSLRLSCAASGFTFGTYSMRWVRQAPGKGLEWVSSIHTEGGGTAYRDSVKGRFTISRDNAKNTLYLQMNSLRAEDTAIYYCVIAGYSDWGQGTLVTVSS VL: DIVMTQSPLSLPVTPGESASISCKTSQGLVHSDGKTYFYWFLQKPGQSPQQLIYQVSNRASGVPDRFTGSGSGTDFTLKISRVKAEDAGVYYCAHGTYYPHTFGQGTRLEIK"
  Units label: "M⁻¹"
  Ka: "5.75e+06"
- Binder: "5E5VH5_VL8 human IgG1 (antibody, V domains shown, Tested as human IgG1; the tested lot is not tied to them in words) VH: QLQLVESGGGLVQPGGSLRLSCAASGFTFGTYSMRWVRQVPRKALEWVSSIHTDGGGTAYRDSVKGRFTISRDNAKNTLYLQMNNLKPEDTAIYYCVIAGYSDWGQGTQVTVSS VL: ATMLTQSPGSLSVVPGESASISCKTSQGLVHSDGKTYFYWFLQKPGQSPQQLIYQVSNRASGVPDRFTGSGSGTDFTLKISGVKAEDAGVYYCAHGTYYPHTFGSGTRLEIK"
  Units label: "M⁻¹"
  Ka: "3.35e+06"

Here is the next item to consider.
Enquiry: Entry mAb15 (antibody, IgG1, V domains shown, Produced as full length IgG1 (kappa) in ExpiCHO-S cells; also called humanized anti-ApoC3 antibody mAb15) VH: QLVESGGGLVQPGGSLRLSCAASGFTFGTYSMRWVRQAPGKGLEWVSSIHTEAGGTAYRDSVKGRFTISRDNAKNTLYLQMNNLKAEDTAIYYCVIAGYSDWGQGTQVTVSS VL: DIVMTQSPLSLPVTPGESASISCKTSQGLVHSGGKTYFYWFLQKPGQSPQQLIYQVSNRASGVPDRFTGSGSGTDFTLKISRVEAEDAGVYYCAQGTYYPHTFGSGTRLEIK has what Ka?
Return: 2.88e+07
